Test system: BLK;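 also: KINOMEscan kinase panel screen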
study_conditions: concentration: 1 μM,replicates: in singlicate; n = 1
readout_label: %Inh

The cases that follow already have their %Inh on record.
{"smiles_string": "CC(=O)Nc1nc2cnc(Nc3cc(NC(=O)c4cccc(CC(C)(C)C#N)c4)ccc3C)nc2s1", "%Inh": "32%"}
{"smiles_string": "Cc1ccc(C(=O)Nc2ccc(Oc3ccc4nc(NC(=O)C5CC5)cn4c3)c(F)c2)c(=O)n1-c1ccccc1", "%Inh": "99.3%"}
{"smiles_string": "CCn1c(-c2nonc2N)nc2cncc(CNC3CCNCC3)c21.Cl", "%Inh": "8%"}

## Input Provide the reported %Inh (system: BLK) for "Cn1ccc2ncnc(Oc3ccc(NC(=O)Nc4cc(C(C)(C)C)on4)c(Cl)c3)c21"
## Output 87%
